- target: WEE1 (Homo sapiens, UniProt P30291+Q96SW2)
- Construct: C-terminal ePL-tagged (DiscoverX, Fremont, CA) full-length WEE1 expression construct; expressed in transfected cells; host or cells: LentiX-HEK293T (Invitrogen), lentivirally transduced; the cells also over-express GSPT1-GN
- Sequence (P30291 whole entry): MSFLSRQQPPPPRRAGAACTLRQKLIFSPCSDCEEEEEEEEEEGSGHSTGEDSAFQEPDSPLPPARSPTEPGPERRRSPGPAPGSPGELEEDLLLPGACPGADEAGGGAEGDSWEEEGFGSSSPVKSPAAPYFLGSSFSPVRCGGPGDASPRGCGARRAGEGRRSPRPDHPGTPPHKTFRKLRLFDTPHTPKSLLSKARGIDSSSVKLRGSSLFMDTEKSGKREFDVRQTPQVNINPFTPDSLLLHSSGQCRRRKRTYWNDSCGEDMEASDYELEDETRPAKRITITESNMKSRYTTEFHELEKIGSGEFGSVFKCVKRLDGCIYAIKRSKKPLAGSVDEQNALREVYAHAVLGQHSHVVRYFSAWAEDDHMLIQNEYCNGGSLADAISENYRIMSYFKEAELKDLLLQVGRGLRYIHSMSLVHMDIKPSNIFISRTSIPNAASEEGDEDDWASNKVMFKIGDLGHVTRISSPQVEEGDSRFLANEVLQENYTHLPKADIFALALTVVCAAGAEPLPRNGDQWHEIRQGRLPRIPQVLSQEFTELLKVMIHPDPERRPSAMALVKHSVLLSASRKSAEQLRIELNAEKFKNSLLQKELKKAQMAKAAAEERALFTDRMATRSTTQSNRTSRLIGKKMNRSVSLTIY
- Sequence (Q96SW2 whole entry): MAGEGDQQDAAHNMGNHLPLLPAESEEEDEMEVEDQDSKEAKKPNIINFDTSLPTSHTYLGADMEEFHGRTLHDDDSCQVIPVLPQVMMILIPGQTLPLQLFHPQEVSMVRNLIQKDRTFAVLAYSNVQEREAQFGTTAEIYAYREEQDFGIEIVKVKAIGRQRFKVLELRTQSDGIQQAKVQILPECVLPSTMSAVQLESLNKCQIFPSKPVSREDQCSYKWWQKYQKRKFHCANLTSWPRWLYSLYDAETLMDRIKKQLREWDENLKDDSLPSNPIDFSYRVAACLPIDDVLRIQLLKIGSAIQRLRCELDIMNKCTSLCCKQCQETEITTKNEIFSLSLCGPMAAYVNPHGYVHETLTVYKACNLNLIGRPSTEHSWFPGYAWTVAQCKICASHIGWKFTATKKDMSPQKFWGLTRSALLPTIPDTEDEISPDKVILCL
- Sequence (Q16531 whole entry partner): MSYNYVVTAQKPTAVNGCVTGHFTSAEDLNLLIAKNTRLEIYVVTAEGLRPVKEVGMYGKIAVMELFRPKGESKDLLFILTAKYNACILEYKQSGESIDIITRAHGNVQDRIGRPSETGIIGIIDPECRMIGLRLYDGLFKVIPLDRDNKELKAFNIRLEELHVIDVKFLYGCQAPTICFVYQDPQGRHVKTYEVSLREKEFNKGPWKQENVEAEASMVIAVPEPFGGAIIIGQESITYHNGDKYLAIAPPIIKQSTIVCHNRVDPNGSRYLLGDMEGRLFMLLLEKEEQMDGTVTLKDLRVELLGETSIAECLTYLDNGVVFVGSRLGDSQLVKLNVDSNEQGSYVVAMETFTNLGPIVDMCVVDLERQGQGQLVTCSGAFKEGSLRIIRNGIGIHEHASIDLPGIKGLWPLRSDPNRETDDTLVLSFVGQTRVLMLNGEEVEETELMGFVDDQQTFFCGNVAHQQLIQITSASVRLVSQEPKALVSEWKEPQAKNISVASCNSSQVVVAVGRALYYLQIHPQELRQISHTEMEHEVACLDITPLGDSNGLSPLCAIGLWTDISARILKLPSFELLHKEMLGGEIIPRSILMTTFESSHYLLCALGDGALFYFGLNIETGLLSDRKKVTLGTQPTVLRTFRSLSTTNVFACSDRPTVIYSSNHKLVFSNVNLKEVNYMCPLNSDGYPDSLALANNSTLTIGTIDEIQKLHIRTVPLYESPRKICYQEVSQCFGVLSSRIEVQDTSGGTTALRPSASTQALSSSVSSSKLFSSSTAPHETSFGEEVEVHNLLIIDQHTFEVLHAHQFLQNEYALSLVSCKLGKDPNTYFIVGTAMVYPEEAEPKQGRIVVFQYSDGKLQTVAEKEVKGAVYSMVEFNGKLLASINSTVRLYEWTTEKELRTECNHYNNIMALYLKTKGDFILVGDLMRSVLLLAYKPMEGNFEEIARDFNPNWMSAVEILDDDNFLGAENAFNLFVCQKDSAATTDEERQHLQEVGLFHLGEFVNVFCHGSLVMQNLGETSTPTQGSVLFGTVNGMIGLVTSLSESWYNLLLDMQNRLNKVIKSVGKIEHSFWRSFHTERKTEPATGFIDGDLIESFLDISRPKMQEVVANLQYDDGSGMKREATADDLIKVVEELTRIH
- method_description: WEE1-ePL degradation assay (293T-LentiX, InCELL Hunter luminescence, 4 hr)
- Assay type: cell-based
- conditions_used: lower limit of fit, % of DMSO control signal remaining; 4 hr
observable: 293T-LentiX WEE1-ePL Degradation 4 hr YMin (%)

molecule	unit	meas_value
COC[C@@H]1CN(Cc2cc(F)c3nc(C4CCCN4C)ncc3c2)C[C@H]1Oc1ccc2c(c1)CN([C@H]1CCC(=O)NC1=O)C2=O (relative stereo)	%	25.5
O=C1CC[C@H](N2Cc3cc(O[C@@H]4CN(Cc5cc(F)c6nc(C7CCOCC7)ccc6c5)C[C@H]4c4ccccc4)ccc3C2=O)C(=O)N1 (relative stereo)	%	85.0
COC[C@@H]1CN(Cc2cnc3nc(C4CCOCC4)ccc3c2)C[C@H]1Oc1ccc2c(c1)CN([C@H]1CCC(=O)NC1=O)C2=O	%	26.0
COC[C@@H]1CN(Cc2cc3ccc(N4CCN(C(C)=O)C5(CC5)C4)cc3cn2)C[C@H]1Oc1ccc2c(c1)CN([C@H]1CCC(=O)NC1=O)C2=O	%	28.3
COC[C@@H]1CN(Cc2cc(F)c3nc(C4CN(CC(C)(C)O)C4)ccc3c2)C[C@H]1Oc1ccc2c(c1)CN([C@H]1CCC(=O)NC1=O)C2=O	%	17.2
COC[C@@H]1CN(Cc2ccc3nc(N4C[C@@H]5CCO[C@@H]5C4)ncc3c2)C[C@H]1Oc1ccc2c(c1)CN([C@H]1CCC(=O)NC1=O)C2=O (single isomer, unassigned)	%	29.8
COC[C@@H]1CN(Cc2cc(F)c3nc(C4CCN(C(C)=O)C4)ccc3c2)C[C@H]1Oc1ccc2c(c1)CN([C@H]1CCC(=O)NC1=O)C2=O (relative stereo)	%	29.6
COC[C@@H]1CN(Cc2cc3ccc(C(=O)N(C)C)cc3cn2)C[C@H]1Oc1ccc2c(c1)CN([C@H]1CCC(=O)NC1=O)C2=O	%	21.5

[A] CC(C)C[C@@H]1CN(Cc2cc(F)c3nc(C4CCOCC4)ccc3c2)C[C@H]1Oc1ccc2c(c1)CN([C@H]1CCC(=O)NC1=O)C2=O (relative stereo)
[B] CN1CC[C@]2(C[C@@H](c3ccc4cc(CN5CC[C@H](Oc6ccc7c(c6)CN([C@H]6CCC(=O)NC6=O)C7=O)C5)ccc4n3)CO2)C1 (single isomer, unassigned)
Q: I need your help: which of the pair A , B has higher 293T-LentiX WEE1-ePL Degradation 4 hr YMin (%)? Your answer should be the label of the entry you select.
Result: A
(A: 78.0%, B: 30.9%)

###

- Tested on: MKN45 cells
- method_description: MKN45 cell proliferation assay (Cell-Titer-Glo, 120 hr)
- Format: cell-based
- conditions_used: Homo sapiens, MKN-45, 120 h, read-out: MKN45 Cell Prolif. 120 hr EC50
observable: EC50 (nM)

molecule	target	EC50, nM
COC[C@@H]1CN(Cc2ccc3nc(N4C[C@H]5CCO[C@H]5C4)ncc3c2)C[C@H]1Oc1ccc2c(c1)CN([C@H]1CCC(=O)NC1=O)C2=O (single isomer, unassigned)	MKN45 cells	6
COC[C@@H]1CN(Cc2cc(F)c3nc(N4C[C@H]5CCO[C@H]5C4)ncc3c2)C[C@H]1Oc1ccc2c(c1)CN([C@H]1CCC(=O)NC1=O)C2=O (single isomer, unassigned)	MKN45 cells	2

[a] O=C1CC[C@H](N2Cc3cc(O[C@@H]4CN(Cc5cc(F)c6nc(N7C[C@H]8CCO[C@H]8C7)ccc6c5)CC4(F)F)ccc3C2=O)C(=O)N1 (single isomer, unassigned)
[b] O=C1CCC(N2C(=O)c3ccc(O[C@H]4CCN(Cc5cc(F)c6nc(C7CCOCC7)ccc6c5)C4)cc3C2=O)C(=O)N1 (single isomer, unassigned)
Q: Lower EC50: a or b ? Mark your selection by writing its label.
Result: a

[P] COC[C@@H]1CN(Cc2cc(F)c3nc(N4CCCC4=O)ncc3c2)C[C@H]1Oc1ccc2c(c1)CN([C@H]1CCC(=O)NC1=O)C2=O
[Q] COC[C@@H]1CN(Cc2cc(F)c3nc(N4CCN(CC(F)(F)F)CC4)ncc3c2)C[C@H]1Oc1ccc2c(c1)CN([C@H]1CCC(=O)NC1=O)C2=O
Q: Field: lower EC50 | Options: P / Q To answer, give the label that identifies your chosen option.
Result: Q
(Q: 2 nM, P: 9 nM)

###

- Tested on: MKN45 cells
- method_description: MKN45 cell proliferation assay (Cell-Titer-Glo, 120 hr)
- Assay type: cell-based
- conditions_used: Homo sapiens, MKN-45, 120 h, read-out: MKN45 Cell Prolif. 120 hr EC50
pEC50: −log10 of the molar value.
observable: pEC50

In [3]: df
Out[3]:
                                   molecule  meas_value
0  COC[C@@H]1CN(Cc2cc(F)c3nc(N4CCN(C(C)=O)C5(CC5)C4)ncc3c2)C[C@H]1Oc1ccc2c(c1)CN([C@H]1CCC(=O)NC1=O)C2=O        9.00

[P] COC[C@H]1CN(Cc2cc(F)c3nc(C4CCOCC4)ccc3c2)C[C@H]1Oc1ccc2c(c1)CN([C@H]1CCC(=O)NC1=O)C2=O
[Q] COC[C@@H]1CN(Cc2cc(F)c3nc(C(=O)N4CCOCC4)ccc3c2)C[C@H]1Oc1ccc2c(c1)CN([C@H]1CCC(=O)NC1=O)C2=O
[R] COC[C@@H]1CN(Cc2cc3ccc(C4CCOCC4)nc3cn2)C[C@H]1Oc1ccc2c(c1)CN([C@H]1CCC(=O)NC1=O)C2=O
[S] O=C1CCC(N2C(=O)c3ccc(O[C@H]4CCN(Cc5ccc6nc(N7CCOCC7)ncc6c5)C4)cc3C2=O)C(=O)N1 (single isomer, unassigned)
Q: Arrange the 4 entries by pEC50 so the values rise. Arrange the labels as the request states and list them.
Result: S, P, Q, R
(S: 6.47, P: 6.96, Q: 7.74, R: 9.00)

###

- target: WEE1 (Homo sapiens, UniProt P30291+Q96SW2)
- Construct: C-terminal ePL-tagged (DiscoverX, Fremont, CA) full-length WEE1 expression construct; expressed in transfected cells; host or cells: LentiX-HEK293T (Invitrogen), lentivirally transduced; the cells also over-express GSPT1-GN
- method_description: WEE1-ePL degradation assay (293T-LentiX, InCELL Hunter luminescence, 4 hr)
- Type: cell-based
- conditions_used: LentiX-HEK293T cells expressing WEE1-ePL, 4 hr incubation; read-out: 293T-LentiX WEE1-ePL Degradation 4 hr EC50
observable: DC50 (nM)

In [3]: df
Out[3]:
                                   compound  meas_value
0  COC[C@@H]1CN(Cc2cc(F)c3nc(N4CCC45COC5)ncc3c2)C[C@H]1Oc1ccc2c(c1)CN([C@H]1CCC(=O)NC1=O)C2=O           2
1  O=C1CC[C@H](N2Cc3cc(O[C@H]4CCN(Cc5ccc6nc([C@@H]7CCO[C@]8(CCOC8)C7)ccc6c5)C4)ccc3C2=O)C(=O)N1 (relative stereo)           1
2  COC[C@@H]1CN(Cc2cc3ccc(C(=O)N(C)C)cc3cn2)C[C@H]1Oc1ccc2c(c1)CN([C@H]1CCC(=O)NC1=O)C2=O           6

[1] COC[C@@H]1CN(Cc2cc3ccc(C(C)(C)O)cc3cn2)C[C@H]1Oc1ccc2c(c1)CN([C@H]1CCC(=O)NC1=O)C2=O
[2] COC[C@@H]1CN(Cc2cc(F)c3nc(C4CCC(C(C)(C)O)CC4)ncc3c2)C[C@H]1Oc1ccc2c(c1)CN([C@H]1CCC(=O)NC1=O)C2=O (relative stereo)
Q: Returns: the argument ( 1 or 2 ) having the larger DC50. Answer by stating the label of the chosen item.
Result: 1
(1: 3 nM, 2: 1 nM)

[P] COC[C@@H]1CN(Cc2cc(F)c3ncc(N4CCOCC4)cc3c2)C[C@H]1Oc1ccc2c(c1)CN([C@H]1CCC(=O)NC1=O)C2=O
[Q] COC[C@@H]1CN(Cc2cc(F)c3nc(C4CCCOC4)ncc3c2)C[C@H]1Oc1ccc2c(c1)CN([C@H]1CCC(=O)NC1=O)C2=O (relative stereo)
[R] COC[C@@H]1CN(Cc2cc(F)c3nc(C4CCCCO4)ncc3c2)C[C@H]1Oc1ccc2c(c1)CN([C@H]1CCC(=O)NC1=O)C2=O (relative stereo)
Q: Please give the order of these compounds when sorted by DC50, largest value leading. Please list each label once, in the requested order.
Result: R, Q, P
(R: 7 nM, Q: 3 nM, P: 1 nM)
